Cited source: PubChem BioAssay (NCI)

Tested on: OVCAR-8 ovarian
Test: NCI-60 one-dose screen, 48 h
Details: 10 µM unless noted
Compounds without any hit were thinned out: in the full panel of roughly 83,000, 20% have a hit. The source made the active and inactive calls. The calls were made as follows: active = growth percent below 10; inactive = the rest.
Classes used: active, inactive

> print(dat)
                                    molecule  label.class
 1  Cn1c(=O)c2[nH]c(SCC(=O)Nc3ccc(C(=O)/C=C/c4ccccc4Cl)cc3)nc2n(C)c1=O     inactive
 2  CCOC(=O)CC1CSC(Nc2ccccc2)=N1 (stereo not given)     inactive
 3  COc1ccc(C(=O)/C=C/c2ccc(Cl)cc2)cc1S(=O)(=O)Nc1c(N)nc(SC)[nH]c1=O     inactive
 4      Fc1cccc(-c2ccc3c(c2)C2(CCNCC2)CN3)c1     inactive
 5  CCN1C(=O)N(CC)C2C1NC(=S)N2/N=C/c1ccc(C(F)(F)F)cc1 (stereo not given)     inactive
 6  COc1ccc(C(O)c2cc3c(N)c(C(=O)Nc4cccc(Cl)c4C)sc3nc2C)cc1 (stereo not given)     inactive
 7  COC(=O)CCC/C=C\C[C@H]1C=CC(=O)/C1=C/C[C@@H](O)C/C=C\CC(F)(F)F       active
 8  O=C(/C=C/c1ccccc1)c1ccc(Nc2nc(Nc3ccc(F)cc3)nc(Nc3ccc(Cl)cc3)n2)cc1     inactive
 9  COc1ccc(/C=C/C(=O)c2cc(OC)c(OC)c(OC)c2)cc1OCC(=O)Nc1nc2ccc(OC(F)(F)F)cc2s1       active
10  CCCn1cnc2c(c1=N)C(c1ccc(F)cc1)c1sc3c(F)cccc3c1O2 (stereo not given)     inactive

###

System: SW-620 colon
Assay: NCI-60 one-dose screen, 48 h (100 = growth as untreated, 0 = no growth, -100 = all killed)
Settings: 10 µM unless noted
Experimental: Growth inhibition of the SW-620 human tumor cell line is measured as a screen for anti-cancer activity. Cells are grown in 96 well plates and exposed to the test compound for 48 hours. Compounds are tested at a single concentration, which is 10^-5 M for most compounds. The reported endpoint is percent growth (GI% or GIPRCNT), where numbers from 0 - 100% represent growth inhibition, and numbers from -100% - 0 represent cell death. For example, a value of 40 represents 60% growth inhibition. […]
About 83,000 compounds went through this panel and 20% of them were active in at least one assay; those are over-represented in the sample as a whole. Active and inactive are the calls of the source. Rule for the calls: active = growth percent below 10; inactive = the rest.
# growth listing for each entry below
quantity.name: growth

> print(dat)
                                    molecule  assayed.system            measured.value
 1         CCNc1nc(O)c(/C=C2\C=Nc3ncccc32)s1    SW-620 colon            6.52% (active)
 2  CN(CCCNC(=O)Cc1ccc2ccc3cccc4ccc1c2c34)CCCNc1cc(-c2ccc3ccccc3c2)nc2ccccc12    SW-620 colon           -69.4% (active)
 3  COc1ccc(-c2nn(-c3ccccc3)cc2/C=C/C(=O)NNC(=O)Nc2ccc(C)cc2)cc1    SW-620 colon          95.1% (inactive)
 4  COc1ccc2c(c1)c(-c1nc(-c3c[nH]c4ncccc34)cs1)cn2CCCN1CCOCC1    SW-620 colon          21.2% (inactive)
 5  COc1ccc2c(c1)/C(=N/c1n[nH]c(=S)s1)C(=O)N2    SW-620 colon          91.3% (inactive)
 6  Cc1ccc(C(=O)c2ccc(CC(=O)N=Nc3c(O)[nH]c4ccc(Br)cc34)n2C)cc1    SW-620 colon          91.2% (inactive)
 7  C[C@H](CCCC(=O)NCC#CCN1CCN(C)CC1)[C@H]1CC[C@H]2[C@@H]3CC[C@@H]4CC(=O)CC[C@]4(C)[C@H]3CC[C@]12C    SW-620 colon          98.7% (inactive)
 8    COc1cc(Cl)c(C)cc1NC(=O)c1cc2ccccc2cc1O    SW-620 colon          21.2% (inactive)
 9  Fc1ccc2[nH]cc(-c3nc(-c4c[nH]c5ccncc45)cs3)c2c1    SW-620 colon           -63.5% (active)
10  COc1cccc(NCc2nnc(Nc3ccc(Cl)cc3)c3ccccc23)c1    SW-620 colon          11.9% (inactive)
11  CN(C)c1ccc(/C=C(\C#N)c2cc3ccccc3[nH]2)cc1    SW-620 colon          13.2% (inactive)
12  CN(C)CCCNC(=O)c1cncnc1Nc1ccc(OCc2cccc(F)c2)c(Cl)c1    SW-620 colon           -67.7% (active)
13  O=C(Nc1ccc(Cl)cc1)Oc1c(Cl)c(Cl)c(Cl)c(Cl)c1Cl    SW-620 colon           101% (inactive)
14  NC1(CO)COC(c2ccccc2)OC1 (configuration not stated)    SW-620 colon           111% (inactive)
15  Cc1ccc(S(=O)(=O)c2nc(-c3ccccc3)oc2Sc2nc3ccccc3s2)cc1    SW-620 colon          54.7% (inactive)
16  CCOC(=O)/C=C1\S/C(=N\Nc2cc(=O)[nH]c3ccccc23)N(c2ccccc2)C1=O    SW-620 colon           101% (inactive)
17  COC(=O)CC[C@@H]1O[C@@H](c2ccc(F)cc2)[C@@H](O)[C@H]1O    SW-620 colon           101% (inactive)
18  CN1C(=O)/C(=C/c2ccc(C(=O)Nc3ncc(Cc4cccc(Cl)c4)s3)cc2)SC1=S    SW-620 colon          37.4% (inactive)
19  CCN(CC)CCCN1C(=O)c2c(c(C)c3c(oc4ccc(OC)cc43)c2C)C1=O    SW-620 colon          97.9% (inactive)
20    Cc1ccc(-c2nc(-c3cn(C)c4ncccc34)cs2)cc1    SW-620 colon  -11.6% [100 µM] (active)
21  Nc1ncnc2c1N=C(c1ccc3c(c1)OCO3)CC(c1cccc(Nc3ccnc4cc(C(F)(F)F)ccc34)c1)N2 (configuration not stated)    SW-620 colon          69.1% (inactive)
22  CN(Cc1ccccc1)c1nc(Cl)c(C2CC(c3ccccc3)=NN2c2ccccc2)s1 (configuration not stated)    SW-620 colon           101% (inactive)

###

System: HCT-15 colon
Experiment: NCI-60 one-dose screen, 48 h
Settings: 10 µM unless noted
Compounds without any hit were thinned out: in the full panel of roughly 83,000, 20% have a hit. Calls of active or inactive are those of the source. How the source made its calls: active means growth percent below 10; inactive means the rest.
Classes used: active, inactive

compound	label.class
CN(C)c1ccc(-c2ccc3c(c2)c(-c2ccccc2)nc(=O)n3C)cn1	inactive
CC1(C)[C@@H](O[C@@H]2OC[C@@H](O[C@@H]3O[C@H](CO)[C@@H](O)[C@H](O)[C@H]3O[C@@H]3OC[C@@H](O)[C@H](O)[C@H]3O)[C@H](O)[C@H]2O[C@@H]2O[C@H](CO)[C@@H](O)[C@H](O)[C@H]2O)CC[C@]2(C)[C@H]3CC[C@]45OC[C@@]6(CC[C@](C)(C=O)C[C@H]64)[C@H](O)C[C@@]5(C)[C@]3(C)CC[C@@H]12	active
O=C1Nc2ccccc2C1(c1c[nH]c2ccccc12)c1c[nH]c2ccccc12	inactive
O=[N+]([O-])c1cc(NS(=O)(=O)c2ccccc2)ccc1NS(=O)(=O)c1ccccc1	inactive
O=C(CI)NC(=O)NC(=O)NCc1ccccc1	inactive
C=C1CC[C@@H]2C(C)(C)[C@@H](O)CC[C@@]2(C)[C@@H]1COc1ccc2ccc(=O)oc2c1	inactive
COc1ccc(C(=O)c2cc3c(N)c(C(=O)Nc4ccccc4)sc3nc2C)cc1	inactive
COc1cc(C(=O)c2c(-c3ccccc3)oc3c(OC)cccc23)cc(OC)c1OC	active
O=C(CSc1nnc(-c2cc(-c3ccccc3)nc3ccccc23)n1-c1ccccc1)Nc1ccc(C(=O)/C=C/c2ccc(Cl)cc2)cc1	inactive
CCS/C(Nc1ccccc1)=C(\C#N)C(=O)Nc1ccc(OC)cc1	inactive
O=C(Cc1cccc(OC(F)(F)F)c1)Nc1ccc(CCCCc2nnc(NC(=O)Cc3ccccn3)s2)nn1	inactive
O=P(O)(O)OCC1OC(n2cnc3c(NCc4ccco4)ncnc32)C(O)C1O (centres undefined)	active
CCNC(=O)Oc1ccc(/C(=C(/C)Cc2ccc(OC)cc2)c2ccc(OCCN3CCCCC3)cc2)cc1	inactive
COc1ccc(C2CC(c3cc(OC)c(OC)c(OC)c3)=NO2)cc1OCCCCOc1cc2c(cc1OC)C(=O)N1CCC[C@H]1C=N2 (some centres undefined)	inactive

###

Test system: BT-549 breast
Assay: NCI-60 one-dose screen, 48 h
Details: 10 µM unless noted
The panel holds about 83,000 compounds, 20% with a hit somewhere; the sample as a whole holds those more often. The source made the active and inactive calls. Rule for the calls: active = growth percent below 10; inactive = the rest.
Classes used: yes (1) for active, no (0) for inactive

> print(dat)
                                    compound  label.class
 1  Cc1c(Cl)cccc1C(=O)Nc1nc2c(s1)CN(C(=O)c1ccc(C(F)(F)F)cc1)CC2       no (0)
 2  O=C1Nc2c(C(=O)O)cccc2/C1=N/c1n[nH]c(=S)s1       no (0)
 3    NC(=O)c1c(NC(=O)c2cccs2)sc2c1CCC(=O)C2      yes (1)
 4  CN(Cc1cnc2nc(N)nc(N)c2n1)c1ccc(C(=O)NC(CCC(=O)O)C(=O)O)cc1Br (stereo not given)       no (0)
 5  CCS/C(Nc1ccccc1)=C(\C#N)C(=O)Nc1ccc(OC)cc1       no (0)
 6  O=C(NNC(=O)c1nc2cc(F)ccc2n2cccc12)c1cnccn1       no (0)
 7  CCCCNC(=O)Oc1ccc(/C(=C(/C)Cc2ccc(OC)cc2)c2ccc(OCCN3CCCCCC3)cc2)cc1       no (0)
 8  CC1=C(C(=O)Nc2ccccc2)C(c2ccc3c(c2)OCO3)NC(=S)N1 (stereo not given)       no (0)
 9  COC1=C(C)C(=O)N2[C@@H]1[C@H](c1ccccc1)OC21C=CC(=O)C=C1      yes (1)
10  COc1cccc(NCc2nnc(Nc3ccc(Cl)cc3)c3ccccc23)c1      yes (1)
